System: NSCLC cell lines
Experiment: NCI-60 SRB growth inhibition, subpanel
Format: cell-based, human
Settings: Homo sapiens, read-out: GI50 MG-MID
One threshold, 10 µM, splits the recorded GI50 values: lower ones are true (1), equal or higher ones are false (0).

Identify whether the compound CC(=O)Nc1ccc(/C=C/C(=O)c2cccc(NCc3ccc(NC(C)=O)cc3)c2)cc1 records GI50 below 10 µM.
false (0)

Identify whether the compound CC(=O)Nc1ccc(/C=C/C(=O)c2cccc(NCc3ccc(CO)cc3)c2)cc1 records GI50 below 10 µM.
false (0)

Identify whether the compound O=C(/C=C/c1cccnc1)c1cccc(NCc2csc3ccccc23)c1 records GI50 below 10 µM.
true (1)

Identify whether the compound COc1ccc(CNc2cccc(C(=O)/C=C/c3cccnc3)c2)cc1OC records GI50 below 10 µM.
false (0)

Identify whether the compound CC(=O)Nc1ccc(/C=C/C(=O)c2cccc(NCc3ccc(C)cc3)c2)cc1 records GI50 below 10 µM.
false (0)
